Target: BK virus VP1 protein, genotype IV (BK virus)
Assay: cell-based or functional assay

| binder | EC50, pseudovirus neutralization |
| --- | --- |
| 9G9 (antibody, V domains shown) VH: EVQLLESGGGLVQPGGSLRLSCAASGFTFHNYAMSWVRQAPGKGLEWVSGISGSGGTAYYADSVKGRFTISRDNSKNTLYLQMNSLRADDTALYYCAKDRFLEWVEGFDSWGQGTLVTVSS VL: DIQMTQSPSSLSASVGDRVTITCRASQSIGSFLIWYQQKPGKAPKLLIYAASSLQSGVPSRFSGSGSGTDFTLIISSLQPEDFATYYCQQSYNTPLTFGGGTKVEIK | 0.11 nM |
| 2A10 (antibody, V domains shown) VH: EVQLVQSGAEVKKPGESLKISCKGSGYSFTYYWIGWVRQMPGKGLEWMGIIYPGDSDTRYSPSFQGQVTISADKSISTAYLQWSSLKASDTAMYYCTTHARNWNNVAYWGQGTLVTVSS VL: DIQMTQSPSSLSASVGDRLTITCRASQNINTFLNWYQQNPGKAPKVLIYAASSLESGVPSRFSGSGSGTDFTLTISSLQPEDFATYYCQQSSSTPWTFGQGTKVEIK | 0.0015 nM |
| 7E5 (antibody, V domains shown) VH: EVQLLESGGGLIQPGGSLRLSCAASGFTFSGFAMSWVRQAPGKGLEWVSGISGSGDITYYGDSVKGRFTISRDNSKSTLYLQMNSLRDADTAVYYCGKDPYNWNHGVYGMDVWGQGTTVTVSS VL: DIQMTQSPSSLSASVGDRVTITCRASQSISTYLNWYQQKPGKAPKFLIYGASSLQSGVPSRFSGSGSGTDFSLTISSLHPGDFATYYCQQSYNIPLTFGGGTKVEIK | 0.133 nM |
